pIC50: −log10 of the molar value.
List of pIC50 tested on F1F0-ATPase (Bos taurus).

Look over these answered cases.
>>> endpoint_value("O=C(/N=C(\\Nc1cc(C(F)(F)F)n[nH]1)NC1CCOCC1)c1ccc(C(F)(F)F)cc1")
"> 5.00"
>>> endpoint_value("CC(C)(C)N/C(=N/C(=O)c1cccc(C#N)c1)Nc1cc(C(F)(F)F)[nH]n1")
"> 5.00"
>>> endpoint_value("O=C(N=C(NCC1CCO1)Nc1cc(-c2ccc(Cl)cc2)n[nH]1)c1ccc(F)c(F)c1 (stereo not shown)")
"> 5.00"

Field: next compound
Given CC(=O)Nc1cc(C(=O)N=C(Nc2cc(-c3ccc(F)cc3)[nH]n2)NC(C)(C)C)ccn1 , respond with its pIC50.
< 5.00
